Numbers sourced from patent US20160237160A1.

target: TWEAKR (TNFRSF12A, FN14), human, on tumor cell lines (human, UniProt Q9NP84 28-129); experiment: cell-based or functional assay
Below, each of the binders is paired with its reported IL-8 release from A375 cells at 100 ug/ml, % of the activation by 300 ng/ml TWEAK ligand value.
Express your answer in %, writing the number without its unit.

TPP-1854 (antibody, human IgG1, kappa, V domains shown, Human IgG1) VH: EVQLLESGGGLVQPGGSLRLSCAASGFTFSPYPMIWVRQAPGKGLEWVSYISPSGGKTHYADSVKGRFTISRDNSKNTLYLQMNSLRAEDTAVYYCARGGDTYFDYFDYWGQGTLVTVSS VL: DIQMTQSPATLSASVGDRVTITCRASQSISGYLNWYQQKPGKAPKLLIYNASSLQSGVPSRFSGSGSGTDFTLTISSLQPEDFATYYCQQSYTSPFITFGPGTKVEIKR; 129
TPP-2090 (antibody, human IgG1, kappa, V domains shown, Human IgG1) VH: EVQLLESGGGLVQPGGSLRLSCAASGFTFSPYPMIWVRQAPGKGLEWVSYISPSGGSTHYADSVKGRFTISRDNSKNTLYLQMNSLRAEDTAVYYCARGGDTYFDYFDYWGQGTLVTVSS VL: DIQMTQSPSSLSASVGDRVTITCRASQSISGYLNWYQQKPGKAPKLLIYQASSLQSGVPSRFSGSGSGTDFTLTISSLQPEDFATYYCQQSYTSPFITFGQGTKVEIKR; 103
136.1(TPP-2194) (antibody, mouse IgG2a, kappa, V domains shown, Murine IgG2a; variable domains from WO2009/020933 with constant region added) VH: EVKLEESGGGLVQPGGSMKLSCVASGFTFNNYWMSWVRQSPEKGLEWLAEIRLKSDNYATHYAESVKGKFTISRDDSKSRLYLQMNNLRAENTGIYYCTGGFADYFDYWGQGTTLTVSS VL: DIVLTQSPASLTVSLGQRATISCRASQSVSTSSYSYMQWYQQRPGQPPKLLIKYATNLDSGVPARFSGSGSGTDFTLNIHPVEEEDAATYYCQHSWEIPYTFGGGTKLEIKR; 93

IN: Given the entry P4A8(TPP-1324) (antibody, human IgG1, kappa, V domains shown, Human IgG1; variable domains from WO2009/140177 with constant region added) VH: QVQLVQSGAEVKKPGASVKVSCKGSGYTFTDYGMHWVRQAPGQGLEWMGVISTYNGYTNYNQKFKGRVTMTVDKSTSTAYMELRSLRSDDTAVYYCARAYYGNLYYAMDYWGQGTLVTVSS VL: DIVLTQSPASLAVSLGQRATISCRASKSVSTSSYSYMHWYQQKPGQPPKLLIKYASNLESGVPARFSGSGSGTDFSLNIHPMEEDDTAMYFCQHSRELPFTFGGGTKLEIKR , report its measured IL-8 release from A375 cells at 100 ug/ml, % of the activation by 300 ng/ml TWEAK ligand.
OUT: 29
